# Test System: BRISC (Homo sapiens, UniProt P46736+Q15018)
# Construct: made in house; host or cells: insect cells (MultiBac baculovirus)
# Assay Comment: BRISC DUB inhibition assay with quenched K63-linked di-ubiquitin substrate (TAMRA fluorescence)
# Format: biochemical
# Assay Conditions: Table 1, Activity Range Table
Recorded Metric: IC50

INSERT INTO assay_data (compound, test_system, recorded_value) VALUES
  ('O=C(NC1CCNCC1)c1nn(S(=O)(=O)c2ccccc2Cl)cc1NC(=O)c1c(Cl)cccc1Cl [Compound 25]', 'BRISC (Homo sapiens, UniProt P46736+Q15018)', '50 to 300 µM'),
  ('O=C(NC1CCNCC1)c1nn(S(=O)(=O)c2cc(Cl)cc(C(F)(F)F)c2)cc1NC(=O)c1c(Cl)cccc1Cl [Compound 27]', 'BRISC (Homo sapiens, UniProt P46736+Q15018)', '50 to 300 µM');

// next entry
Form field IC50, entry NCCCNC(=O)c1nn(C(=O)c2c(Cl)cccc2Cl)cc1NC(=O)c1c(Cl)cccc1Cl [Compound 10] : 1 to 10 µM
